Each recorded value in this set is attributed to the supplement of paper PMC9170038.

system: MS2 coat protein; experiment: apparent KD of MS2 coat protein; designed switch direction (-1 OFF switch, 1 ON switch): -1; higher = weaker reporter binding; settings: input ligand: FMN 200 uM
Property: apparent KD of MS2 coat protein; scope: individual sequences

- constructSequence: "AAACGCUGAGGAUAUAUAUAACAACAAAGCCUCACGUGCCAACAUGAGGAUCACCCAUGUAGAAGGCAGCCCAA [Mod R3 Insanara 12 - Jieux - Exclusion 2] (Eterna round: R97, puzzle: Exclusion 2)"
  apparent KD of MS2 coat protein, µM: 0.0158
- constructSequence: "UAUUAGCAAGUAAGAUCCCACAUGAGGAUCACCCAUGUGCUCGUCUUAUAAGGUACUGUGACGAAAGUCACGGUACC [Sensor 3, v1 - 88] (Eterna round: R96, puzzle: Sensor v3, turn-off variant 1)"
  apparent KD of MS2 coat protein, µM: 0.0167
- constructSequence: "CCACUGUCAGGAUAUCGUGCAUAACGUUAACAAUUUAUGUGCGAGAAGGGACAUGAGGAUCACCCAUGUAAACG [Omei Ex4 A28PK4] (Eterna round: R97, puzzle: Exclusion 4)"
  apparent KD of MS2 coat protein, µM: 0.233
- constructSequence: "AACCAGCGAGGAUAUGCUUGCGCGUGUUCUGGUUAUAAUCGACUUGAGGAUCACCCAAGUAGAAGGUGCUGGCG [EX2 #55] (Eterna round: R97, puzzle: Exclusion 2)"
  apparent KD of MS2 coat protein, µM: 0.36
- constructSequence: "UGAACAUGUGUCAGGAUAUCUGAUGUAAGUUAAUCGGAGAAGGGACAUGAGGAUCACCCAUGUCGUCGAAAGAU [Eternabot (L2) Solution 40] (Eterna round: R97, puzzle: Brourd's mod of Exclusion 4)"
  apparent KD of MS2 coat protein, µM: 0.0193
- constructSequence: "CUCAUGUCAGGAUAUCUACAUUAAAUUGGUAACCAAGCAUGAGAGAAGGGACAUGAGGAUCACCCAUGUAAAAC [Cegeange] (Eterna round: R97, puzzle: Exclusion 4)"
  apparent KD of MS2 coat protein, µM: 0.044
- constructSequence: "CGUCCGAACUCAGGAUAUCAACUUAACAACAUGAGGAUCACCCAUGUGGCCUGUAAAACCCGAGAUGAGAAGGGAGGGCGGGCC [Usceondiat] (Eterna round: R96, puzzle: Exclusion NG 2)"
  apparent KD of MS2 coat protein, µM: 0.0136
- constructSequence: "GCCGAAAAUGUGAGGAUAUACCUAUGGAUACAUAGGUAGAAGGCACAUGAGGAUCACCCAUGUGUUUCAACGGC [Eli bmx4 4.21] (Eterna round: R97, puzzle: Brourd's mod of Exclusion 4)"
  apparent KD of MS2 coat protein, µM: 0.0948
- constructSequence: "AUAAUGUGAGGAUAUAUGAAUCACGGUGAUACACCGUGAAGAUAGAAGGUACAUGAGGAUCACCCAUGUAGGGC [Mod of Anonveat 14 - Jieux - Exclusion 4] (Eterna round: R97, puzzle: Exclusion 4)"
  apparent KD of MS2 coat protein, µM: 0.0395
